src = ChEMBL document CHEMBL3124750

# Retention_time listing for each entry below
- System: Liver microsome
- assay_procedure: Drug metabolism in rat liver microsomes assessed as retention time of deethylated M1 metabolite formation after 30 mins by LC-MS/MS analysis
- Assay type: ADME
- condition_set: 0.5 h
I only need the number, in min, no unit after it.

Some solved entries appear below for comparison.
compound_smiles: CCN(CC)C(=O)Cc1c(-c2ccc(C#CCCCCF)cc2)nn2c(C)cc(C)nc12
measurement_kind: Retention_time
reported_value: 11.68
--
compound_smiles: CCN(CC)C(=O)Cc1c(-c2ccc(C#CCF)cc2)nn2c(C)cc(C)nc12
measurement_kind: Retention_time
reported_value: 11.41
--
compound_smiles: CCN(CC)C(=O)Cc1c(-c2ccc(C#CCCCF)cc2)nn2c(C)cc(C)nc12
measurement_kind: Retention_time
reported_value: 12.08

// below: Retention_time requested for another compound
# query: Retention_time | item `CCN(CC)C(=O)Cc1c(-c2ccc(C#CCCF)cc2)nn2c(C)cc(C)nc12` | system: Liver microsome
11.68

###

- Test system: Liver microsome
- assay_procedure: Drug metabolism in rat liver microsomes assessed as retention time of hydroxylated M2 metabolite formation after 30 mins by LC-MS/MS analysis
- Type: ADME
- condition_set: 0.5 h
measurement_kind: Retention_time (min)
I only need the number, in min, no unit after it.

Some solved entries appear below for comparison.
compound_smiles: CCN(CC)C(=O)Cc1c(-c2ccc(C#CCCCCF)cc2)nn2c(C)cc(C)nc12
unit_tag: min
Retention_time: 11.19
--
compound_smiles: CCN(CC)C(=O)Cc1c(-c2ccc(C#CCCF)cc2)nn2c(C)cc(C)nc12
unit_tag: min
Retention_time: 11.19
--
compound_smiles: CCN(CC)C(=O)Cc1c(-c2ccc(C#CCCCF)cc2)nn2c(C)cc(C)nc12
unit_tag: min
Retention_time: 11.37

// below: Retention_time requested for another compound
# query: Retention_time | item `CCN(CC)C(=O)Cc1c(-c2ccc(C#CCF)cc2)nn2c(C)cc(C)nc12` | system: Liver microsome
11

###

# logD listing for each entry below
- assay_procedure: Octanol-buffer partition coefficient, log D of the compound at pH 7.4 by HPLC method
- Type: physicochemical
Lab note: record the figure alone, no unit after it.

Some solved entries appear below for comparison.
compound: CCN(CC)C(=O)Cc1c(-c2ccc(C#CCCCF)cc2)nn2c(C)cc(C)nc12
logD: 4.06
--
compound: CCN(CC)C(=O)Cc1c(-c2ccc(C#CCCF)cc2)nn2c(C)cc(C)nc12
logD: 3.67
--
compound: CCN(CC)C(=O)Cc1c(-c2ccc(C#CCF)cc2)nn2c(C)cc(C)nc12
logD: 3.61

Given the entry `CCN(CC)C(=O)Cc1c(-c2ccc(C#CCCCCF)cc2)nn2c(C)cc(C)nc12` , report its measured logD.
4.35

Now consider CCN(CC)C(=O)Cc1c(-c2ccc(OCCF)cc2)nn2c(C)cc(C)nc12 [DPA-714] and answer again.
2.89

###

# Retention_time listing for each entry below
- System: Liver microsome
- assay_procedure: Drug metabolism in rat liver microsomes assessed as retention time of compound after 30 mins by LC-MS/MS analysis
- Type: ADME
- condition_set: 0.5 h
I only need the number, in min, no unit after it.

compound_smiles: CCN(CC)C(=O)Cc1c(-c2ccc(C#CCCCCF)cc2)nn2c(C)cc(C)nc12
assayed_target: Liver microsome
reported_value: 15.81
//
compound_smiles: CCN(CC)C(=O)Cc1c(-c2ccc(C#CCCCF)cc2)nn2c(C)cc(C)nc12
assayed_target: Liver microsome
reported_value: 17.05
//
compound_smiles: CCN(CC)C(=O)Cc1c(-c2ccc(C#CCCF)cc2)nn2c(C)cc(C)nc12
assayed_target: Liver microsome
reported_value: 15.81

Given the entry `CCN(CC)C(=O)Cc1c(-c2ccc(C#CCF)cc2)nn2c(C)cc(C)nc12` , report its measured Retention_time.
15.66
